System: BDF1 mice, Friend leukemia sc, tumor weight T/C
Assay: NCI In Vivo Anticancer Drug Screen. Data for tumor model Friend Virus Leukemia (Solid) (subcutaneous) in B6D2F1 (BDF1) mice
Settings: endpoint: mean tumor weight; dose: 1.0 mg/kg/injection; schedule: Q01DX011 (ip); vehicle: carboxymethylcellulose (CMC); higher = larger tumour
Records with an inconclusive call do not appear.
Measured endpoint: T/C

{"Compound": "CN(C)c1ccc(C(N)=O)cn1", "Result": "78 % of control"}
{"Compound": "NC(Cc1ccc(N(CCCl)CCCl)cc1)C(=O)O (stereo unspecified)", "Result": "65 % of control"}
{"Compound": "CCn1cnc2c(=S)nc(N)[nH]c21", "Result": "89 % of control"}
{"Compound": "O=P(N1CC1)(N1CC1)N1CC1", "Result": "83 % of control"}
{"Compound": "N#C[C@@H]1C2C=CC(CC2)[C@H]1C#N", "Result": "71 % of control"}
{"Compound": "Nc1nc(=S)c2ncn(C3OC(CO)C(O)C3O)c2[nH]1 (stereo unspecified)", "Result": "36 % of control"}
{"Compound": "Nc1nc(SCc2ccccc2Cl)c2[nH]cnc2n1", "Result": "88 % of control"}
{"Compound": "CCCn1cnc2c(=S)nc(N)[nH]c21", "Result": "67 % of control"}
{"Compound": "Nc1nc(SCc2ccccc2Cl)c2ncn(C3OC(CO)C(O)C3O)c2n1 (stereo unspecified)", "Result": "61 % of control"}
{"Compound": "COc1ccc(Nc2ccnc3cc(Cl)ccc23)cc1CN(CCCl)CCCl", "Result": "81 % of control"}
{"Compound": "CC(CCC(C)OS(C)(=O)=O)OS(C)(=O)=O (stereo unspecified)", "Result": "91 % of control"}
{"Compound": "NC(=O)N(CCCl)N=O", "Result": "104 % of control"}
{"Compound": "CCN(CC)CCNc1ccc(C)c2sc3ccccc3c(=O)c12", "Result": "184 % of control"}
{"Compound": "NC(Cc1c[nH]c2ccc(N(CCCl)CCCl)cc12)C(=O)O (stereo unspecified)", "Result": "120 % of control"}
{"Compound": "CCc1ccccc1N1CCN(C(=O)c2cc(OC)c(OC)c(OC)c2)CC1", "Result": "64 % of control"}
{"Compound": "CCCCCCCCCCCCn1c(C)nc2ccccc21", "Result": "114 % of control"}

* * *

Tested on: BDF1 mice, Friend leukemia sc, tumor weight T/C
Experiment: NCI In Vivo Anticancer Drug Screen. Data for tumor model Friend Virus Leukemia (Solid) (subcutaneous) in B6D2F1 (BDF1) mice
Details: endpoint: mean tumor weight; dose: 50.0 mg/kg/injection; schedule: Q01DX011 (ip); vehicle: saline; higher = larger tumour
Records with an inconclusive call do not appear.
In this section we review reported T/C values for a set of compounds.

{"Compound": "CC(/C=N/N=C(N)N)=N\\N=C(N)N", "System": "BDF1 mice, Friend leukemia sc, tumor weight T/C", "T/C": "169 % of control"}
{"Compound": "CN(C)c1ccc(/C=C/c2ccnc3ccccc23)cc1", "System": "BDF1 mice, Friend leukemia sc, tumor weight T/C", "T/C": "51 % of control"}
{"Compound": "COc1ccc2c(c1OC)C(=O)O[C@@H]2[C@H]1c2c(cc3c(c2OC)OCO3)CCN1C", "System": "BDF1 mice, Friend leukemia sc, tumor weight T/C", "T/C": "110 % of control"}
{"Compound": "NNc1ncnc2nc[nH]c12", "System": "BDF1 mice, Friend leukemia sc, tumor weight T/C", "T/C": "61 % of control"}
{"Compound": "CC(/C=N/N=C(N)N)=N/N=C(N)N", "System": "BDF1 mice, Friend leukemia sc, tumor weight T/C", "T/C": "124 % of control"}
{"Compound": "COc1ccc2c3c1OC1C(O)C=CC4C(C2)N(C)CCC341 (stereo unspecified)", "System": "BDF1 mice, Friend leukemia sc, tumor weight T/C", "T/C": "119 % of control"}
